Test: Plasma pharmacokinetics of BI 187004 after single oral doses (LC–MS/MS)
Settings: male, human, plasma, po, 40 mg, BI 187004 plasma concentrations, 40 mg single oral, planned time 1.5 h, gMean
property: concentration at 1.5 h (nM)
Lab book: enter the figure in nM, no units written.

[Q] Return value of concentration at 1.5 h for input N#Cc1ccc2c(c1)[C@H]1CCCN(C(=O)c3ccc4[nH]cnc4c3)[C@H]1C2 , no commentary.
[A] 1870

###

Assay: Plasma pharmacokinetics of BI 187004 after single oral doses (LC–MS/MS)
Settings: male, human, plasma, po, 5 mg, Plasma concentration Mean, 5 mg single oral; 36 h
property: concentration at 36 h
Please answer using the number first and the unit second.

[Q] Return value of concentration at 36 h for input N#Cc1ccc2c(c1)[C@H]1CCCN(C(=O)c3ccc4[nH]cnc4c3)[C@H]1C2 , no commentary.
[A] 14.9 nM

###

Assay: Plasma pharmacokinetics of BI 187004 after single oral doses (LC–MS/MS)
Details: male, human, plasma, po, 20 mg, C24 gMean (%gCV), 20 mg single oral dose
property: concentration at 24 h (nM)
Lab book: enter the figure in nM, no units written.

[Q] Return value of concentration at 24 h for input N#Cc1ccc2c(c1)[C@H]1CCCN(C(=O)c3ccc4[nH]cnc4c3)[C@H]1C2 , no commentary.
[A] 161

###

Experiment: Plasma pharmacokinetics of BI 187004 after single oral doses (LC–MS/MS)
Settings: male, human, plasma, po, 360 mg, BI 187004 plasma concentrations, Max, 360 mg single oral, planned time 36 h
property: concentration at 36 h (nM)
Lab book: enter the figure in nM, no units written.

[Q] Return value of concentration at 36 h for input N#Cc1ccc2c(c1)[C@H]1CCCN(C(=O)c3ccc4[nH]cnc4c3)[C@H]1C2 , no commentary.
[A] 1990

###

Assay: Plasma pharmacokinetics of BI 187004 after single oral doses (LC–MS/MS)
Details: male, human, plasma, po, 240 mg, BI 187004 plasma concentrations, Median, 240 mg single oral, planned time 4 h
property: concentration at 4 h (µM)
Lab book: enter the figure in µM, no units written.

[Q] Return value of concentration at 4 h for input N#Cc1ccc2c(c1)[C@H]1CCCN(C(=O)c3ccc4[nH]cnc4c3)[C@H]1C2 , no commentary.
[A] 5.68

###

Experiment: Plasma pharmacokinetics of BI 187004 after single oral doses (LC–MS/MS)
Settings: male, human, plasma, po, 2.5 mg, Plasma concentration gMean, 2.5 mg single oral; 1.5 h
property: concentration at 1.5 h
Please answer using the number first and the unit second.

[Q] Return value of concentration at 1.5 h for input N#Cc1ccc2c(c1)[C@H]1CCCN(C(=O)c3ccc4[nH]cnc4c3)[C@H]1C2 , no commentary.
[A] 10.1 nM

###

Assay: Plasma pharmacokinetics of BI 187004 after single oral doses (LC–MS/MS)
Settings: male, human, plasma, po, 5 mg, Plasma concentration Mean, 5 mg single oral; 5 h
property: concentration at 5 h
Please answer using the number first and the unit second.

[Q] Return value of concentration at 5 h for input N#Cc1ccc2c(c1)[C@H]1CCCN(C(=O)c3ccc4[nH]cnc4c3)[C@H]1C2 , no commentary.
[A] 97.4 nM

###

Test: Plasma pharmacokinetics of BI 187004 after single oral doses (LC–MS/MS)
Settings: male, human, plasma, po, 160 mg, BI 187004 plasma concentrations, 160 mg single oral, planned time 2.5 h, Median
property: concentration at 2.5 h (µM)
Lab book: enter the figure in µM, no units written.

[Q] Return value of concentration at 2.5 h for input N#Cc1ccc2c(c1)[C@H]1CCCN(C(=O)c3ccc4[nH]cnc4c3)[C@H]1C2 [BI 187004] , no commentary.
[A] 6.55
